Attribute: melting point
Parameter Measured: melting point (°C)

compound="O=C1c2ccccc2C(=O)C1C(=O)C(c1ccccc1)c1ccc(Cl)cc1 (stereo not drawn)" parameter_measured="melting point" unit_info=°C observed_result=140
compound="CC12CC(O)C3C(CCC4(O)CC(O)CC(O)C34CO)C1(O)CCC2C1=CC(=O)OC1 (stereo not drawn)" parameter_measured="melting point" unit_info=°C observed_result=236
compound=COc1cc(Br)cc(F)c1F parameter_measured="melting point" unit_info=°C observed_result=35
compound=Cc1ccc2c(CCl)c(C)ccc2c1CCl parameter_measured="melting point" unit_info=°C observed_result=228
compound=NS(=O)(=O)c1ccc(SCCCO)c(F)c1 parameter_measured="melting point" unit_info=°C observed_result=110
compound=O=[N+]([O-])c1ccc(SSc2ccc([N+](=O)[O-])cc2)cc1 parameter_measured="melting point" unit_info=°C observed_result=182
compound=Cc1nnc(-c2ccccc2)c2noc(C)c12 parameter_measured="melting point" unit_info=°C observed_result=180
compound="CC1=CCCC(C)(C)C1/C=C/C(C)=C/C=C/C(C)=C/C=C/C=C(C)/C=C/C=C(C)/C=C/C1=C(C)CCCC1(C)C (stereo not drawn)" parameter_measured="melting point" unit_info=°C observed_result=188
compound=NC(=O)c1cc([N+](=O)[O-])ccc1Cl parameter_measured="melting point" unit_info=°C observed_result=179
compound=Clc1cc(N2CCCCC2)ncn1 parameter_measured="melting point" unit_info=°C observed_result=79
compound=FC(F)C(F)(F)Cl parameter_measured="melting point" unit_info=°C observed_result=-117
compound=C=C(NC(C)=O)C(=O)CCC(N)=O parameter_measured="melting point" unit_info=°C observed_result=130
compound=Cc1n[nH]cc1[N+](=O)[O-] parameter_measured="melting point" unit_info=°C observed_result=133
compound=NNC(=S)NCc1ccccc1 parameter_measured="melting point" unit_info=°C observed_result=130
compound=Fc1cnc(Cl)nc1Cl parameter_measured="melting point" unit_info=°C observed_result=38
compound=FC(F)(F)C(Cl)C(F)(F)F parameter_measured="melting point" unit_info=°C observed_result=-120
compound="CC1=CC(C)N=N1 (stereo not drawn)" parameter_measured="melting point" unit_info=°C observed_result=108
compound=c1ccc(-c2oc(-c3ccccc3)c(-c3ccccc3)c2-c2ccccc2)cc1 parameter_measured="melting point" unit_info=°C observed_result=175
compound=Cc1ccc(S(C)(=O)=O)cc1 parameter_measured="melting point" unit_info=°C observed_result=88
compound=COc1cc([N+](=O)[O-])cc(C=O)c1O parameter_measured="melting point" unit_info=°C observed_result=140
compound=O=C(Nc1nc(-c2ccc(Cl)cc2)cs1)c1ccccc1 parameter_measured="melting point" unit_info=°C observed_result=120
compound=COC(=O)NCCc1ccccc1NC(C)=O parameter_measured="melting point" unit_info=°C observed_result=107
compound=CCCCCCCCCCCO parameter_measured="melting point" unit_info=°C observed_result=19
compound=Cc1nn(C)c2ncc(C(N)=O)c(Cl)c12 parameter_measured="melting point" unit_info=°C observed_result=275
compound=CSc1ccc(N=C=S)cc1 parameter_measured="melting point" unit_info=°C observed_result=50
compound=O=C(O)c1ccccc1 parameter_measured="melting point" unit_info=°C observed_result=122
compound=Cc1ccc(C(=O)CBr)c(C)c1 parameter_measured="melting point" unit_info=°C observed_result=44
compound=CC(=O)CC(=O)O parameter_measured="melting point" unit_info=°C observed_result=36.5
compound=O=C(O)Cc1ccc([N+](=O)[O-])cc1[N+](=O)[O-] parameter_measured="melting point" unit_info=°C observed_result=180
compound=Cc1nc(/C(C#N)=N/Nc2ccc(Cl)cc2)sc1/N=N/c1ccccc1 parameter_measured="melting point" unit_info=°C observed_result=225
compound=O=[N+]([O-])c1cc(C2CCCCC2)c(O)c([N+](=O)[O-])c1 parameter_measured="melting point" unit_info=°C observed_result=107
compound=CC(C)(C)[C@@H]1NC(=O)CNC1=O parameter_measured="melting point" unit_info=°C observed_result=300
compound=OCCCCCCCCCCl parameter_measured="melting point" unit_info=°C observed_result=28
compound=Cc1c(Cl)cccc1C#N parameter_measured="melting point" unit_info=°C observed_result=21.5
compound=CCCC=CCCC parameter_measured="melting point" unit_info=°C observed_result=-90
